Target: human Nav1.1 (Homo sapiens, UniProt P35498)
Construct: host or cells: HEK293
Assay: Amplification of Nav1.1-derived voltage-dependent sodium current (Nav1.1 current), cell line stably expressing human Nav1.1, automated patch clamp
Assay type: cell-based
Conditions: Concentration 1 μM (Test Result 7); read-out: Nav1.1 current amplification rate (%)
value_type: activation at 1 µM (%)

INSERT INTO measurements (compound, value_unit, reported_value) VALUES
  ('Cc1ccc(-c2ccc(=O)n(CC(=O)Nc3ccn4ncnc4c3)n2)c(F)c1', '%', 98);

I = CN(c1ccc(=O)n(CC(=O)N2CCc3c(N4CCOCC4)cccc32)n1)C1CC2(CC2)C1
II = CN(c1ccc(=O)n(CC(=O)Nc2ccc(C#N)nc2)n1)C1CCCC1
III = CC1CC=C(c2ccc(=O)n(CC(=O)Nc3ccc4ccncc4c3)n2)CC1 (centres unmarked)
IV = CN(c1ccc(=O)n(CC(=O)Nc2ccc3cnccc3c2)n1)C1CCCC1
Enquiry: # sort list by recorded activation at 1 µM, greatest to least The reply should contain the labels ordered as requested.
Return: III, I, IV, II

Data origin: patent US20220347175A1
